- Test system: Candida albicans ATCC-10259
- ASSAY TEXT: Minimum inhibitory concentration (MIC), dilution method in SAAMF medium, 35° C. for 2 days
- Type: cell-based
- MEASUREMENT CONTEXT: ATCC10259, 48 h; Candida albicans ATCC 10259; SAAMF medium; 35° C., 2 days; read-out: Minimum inhibitory concentration (MIC), C.a.
PROPERTY: MIC

Example molecules with recorded MIC:
>>> print(df.to_string())
                                   molecule  property  experimental_result
0  C=C1CCN([C@H](C)[C@](O)(Cn2cncn2)c2ccc(F)cc2F)CC1 [Example 1]       MIC        < 0.025 µg/mL
1  C[C@@H](N1CCC(=Cc2ccccc2)CC1)[C@](O)(Cn1cncn1)c1ccc(F)cc1F (racemic) [Example 10]       MIC        < 0.025 µg/mL
2  C=C1CCN([C@H](C)[C@](O)(Cn2ccnc2)c2ccc(F)cc2F)CC1 (racemic) [Example 5]       MIC        < 0.025 µg/mL
3  C=C1CCN([C@@H](C)[C@@](O)(Cn2cncn2)c2ccc(F)cc2F)CC1 [Example 3]       MIC           0.39 µg/mL
4  C=C1CCN([C@H](C)[C@](O)(Cn2cncn2)c2ccc(Cl)cc2Cl)CC1 [Example 7]       MIC          0.025 µg/mL

Incoming: Give the reported MIC for this molecule. C=C1CCN([C@H](C)[C@](O)(Cn2cncn2)c2ccc(F)cc2F)C1 [Example 14]
Outgoing: < 0.025 µg/mL

Incoming: Give the reported MIC for this molecule. C=C1CCN([C@H](C)[C@](O)(Cn2cncn2)c2ccc(Cl)cc2)CC1 [Example 6]
Outgoing: < 0.0125 µg/mL

Incoming: Give the reported MIC for this molecule. C=C1CCN([C@H](C)[C@](O)(Cn2ccnc2)c2ccc(F)cc2F)CC1 [Example 4]
Outgoing: < 0.025 µg/mL

Origin of the recorded values: patent US5962476A
